Assignment: determine reported Fold over buffer for the given binders.
ASSAYED_SYSTEM: T1, IL-12 receptor endogenously expressed on THP-1 cells (UniProt P42701 24-662; Q99665 24-862)
T1 construct: whole, on cells
T1 sequence (Q99665 24-862, chain 2 of 2, other chains not shown): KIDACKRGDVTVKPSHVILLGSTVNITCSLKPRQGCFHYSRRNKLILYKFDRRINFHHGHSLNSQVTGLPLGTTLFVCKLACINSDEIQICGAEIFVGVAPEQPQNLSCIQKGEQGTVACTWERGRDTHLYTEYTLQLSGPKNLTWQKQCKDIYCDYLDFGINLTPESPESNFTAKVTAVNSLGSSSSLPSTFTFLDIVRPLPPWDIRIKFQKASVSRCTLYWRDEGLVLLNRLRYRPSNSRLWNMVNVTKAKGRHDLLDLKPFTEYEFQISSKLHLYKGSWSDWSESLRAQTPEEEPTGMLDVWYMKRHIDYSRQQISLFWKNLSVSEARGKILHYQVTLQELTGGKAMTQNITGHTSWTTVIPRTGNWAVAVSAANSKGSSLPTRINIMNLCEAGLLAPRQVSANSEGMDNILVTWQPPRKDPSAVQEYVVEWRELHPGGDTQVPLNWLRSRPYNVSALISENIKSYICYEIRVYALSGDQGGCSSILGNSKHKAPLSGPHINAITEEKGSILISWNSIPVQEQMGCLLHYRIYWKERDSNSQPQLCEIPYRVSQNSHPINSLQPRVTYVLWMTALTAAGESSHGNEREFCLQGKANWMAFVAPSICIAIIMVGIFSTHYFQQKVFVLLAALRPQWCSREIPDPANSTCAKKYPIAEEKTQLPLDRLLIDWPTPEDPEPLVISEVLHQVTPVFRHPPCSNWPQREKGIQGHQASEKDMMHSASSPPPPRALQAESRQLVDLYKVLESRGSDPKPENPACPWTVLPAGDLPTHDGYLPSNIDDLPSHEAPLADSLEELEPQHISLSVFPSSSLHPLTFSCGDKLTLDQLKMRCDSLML
PROTOCOL_DESCRIPTION: FACS, hybridoma supernatant, THP-1

85801_02N03 (antibody, V domains shown, also called 85801_02N03A) VH: QVHLVQSGAEVKKPGASVKVSCEASGYTFTDYYIHWLRQAPGQGLEWMGWINPNSGGTHYAQKFQGRVTMTRDTSISTAYMELSRLSSDDTAVYYCAREGGWNYFSGMDVWGQGTTVTVSS VL: DIQLTQSPSFLSASVGDRVTITCRASQGISSYLAWYQQQPGKPPKLLIYAASTLHSGVPSRFSGSGSGTEFTLTISSLQPEDFATYYCQQLNRYPYTCGQGTKLEIK    41 fold

// Fold over buffer value for 85801_04M10 (antibody, V domains shown, also called 85801_04M10A) VH: QVQLQESGPGLVKPSETLSLTCTVSGGSISSYYWSWIRQPAGTGLEWIGRFYTSGSTIYNPSLESRVTMSVDTSKNQFSLKLSSVTAADTAVYYCATERDYPHDAFDIWGQGTMVTVSS VL: DIQLTQSPSFLSASVGDRVTIPCRASQDISSFLAWYQQKPGKAPNLLIYAASTLQSGVPSRFSGSGSGTEFTLTISSLQPEDFATYYCQQLNGYPLTFGGGTKVEIK : 36 fold

All values here come from patent US20250019450A1.
